# key: entry, value: GI50
# System: NCI-H226
# testDetails: NCI tumour cell line growth inhibition, 48 h
The source made the active and inactive calls. Cut-off read from the data, not from the text of the source: active = GI50 up to about 1.1 µM and inactive = higher.

>  <compound>
O=C1c2c(O)cccc2C(C(=O)CCCC(=O)C2c3cccc(O)c3C(=O)c3c(O)cccc32)c2cccc(O)c21

>  <result>
0.456 µM (active)

$$$$
>  <compound>
COc1ccc(C(=C(Cl)c2ccccc2)c2ccc(OC)cc2)cc1

>  <result>
> 100 µM (inactive)

$$$$
>  <compound>
Cn1c(NN)nc(-c2ccc([N+](=O)[O-])cc2)c(C#N)c1=O

>  <result>
11 µM (inactive)

$$$$
>  <compound>
NC(CCC(=O)NC(CSC(=O)N(O)c1ccc(Br)cc1)C(=O)NCC(=O)O)C(=O)O (stereo not given)

>  <result>
> 100 µM (inactive)

$$$$

I would be grateful if you could share the reported GI50 for CCOn1cc(C[C@@]2(O)C(=O)OC3[C@@H](O)CO[C@@]32O)c2ccccc21 (stereo not given in full) . > 100 µM (inactive)

Please look up its GI50: COC(=O)c1cccc(C)c1C1CN=NC12Cc1cc(C)cc(C)c1C2=O (stereo not given) 61.5 µM (inactive)

What does the data say about its GI50? Entry: CCCCOCn1c(=O)[nH]c(=O)c2cc(Br)ccc21 12.6 µM (inactive)

Record request: GI50 value, item NC(=O)N/N=C\c1ccccc1OCc1cccc(COc2ccccc2/C=N\NC(N)=O)n1 73.6 µM (inactive)

Entry Clc1ccc2c(NCCNC3CCCCC3)ccnc2c1 : reported GI50 = ? 10.6 µM (inactive)

Any idea what GI50 was measured for NC1=CN2c3ccccc3N(CC(=O)O)C2C=C1 (stereo not given) ? > 100 µM (inactive)
